// values below are reported Kd
Target: T1, EsCas13d, nuclease-dead (Eubacterium siraeum, UniProt B0MS50, R295A;H300A;R849A;H854A)
T1 sequence: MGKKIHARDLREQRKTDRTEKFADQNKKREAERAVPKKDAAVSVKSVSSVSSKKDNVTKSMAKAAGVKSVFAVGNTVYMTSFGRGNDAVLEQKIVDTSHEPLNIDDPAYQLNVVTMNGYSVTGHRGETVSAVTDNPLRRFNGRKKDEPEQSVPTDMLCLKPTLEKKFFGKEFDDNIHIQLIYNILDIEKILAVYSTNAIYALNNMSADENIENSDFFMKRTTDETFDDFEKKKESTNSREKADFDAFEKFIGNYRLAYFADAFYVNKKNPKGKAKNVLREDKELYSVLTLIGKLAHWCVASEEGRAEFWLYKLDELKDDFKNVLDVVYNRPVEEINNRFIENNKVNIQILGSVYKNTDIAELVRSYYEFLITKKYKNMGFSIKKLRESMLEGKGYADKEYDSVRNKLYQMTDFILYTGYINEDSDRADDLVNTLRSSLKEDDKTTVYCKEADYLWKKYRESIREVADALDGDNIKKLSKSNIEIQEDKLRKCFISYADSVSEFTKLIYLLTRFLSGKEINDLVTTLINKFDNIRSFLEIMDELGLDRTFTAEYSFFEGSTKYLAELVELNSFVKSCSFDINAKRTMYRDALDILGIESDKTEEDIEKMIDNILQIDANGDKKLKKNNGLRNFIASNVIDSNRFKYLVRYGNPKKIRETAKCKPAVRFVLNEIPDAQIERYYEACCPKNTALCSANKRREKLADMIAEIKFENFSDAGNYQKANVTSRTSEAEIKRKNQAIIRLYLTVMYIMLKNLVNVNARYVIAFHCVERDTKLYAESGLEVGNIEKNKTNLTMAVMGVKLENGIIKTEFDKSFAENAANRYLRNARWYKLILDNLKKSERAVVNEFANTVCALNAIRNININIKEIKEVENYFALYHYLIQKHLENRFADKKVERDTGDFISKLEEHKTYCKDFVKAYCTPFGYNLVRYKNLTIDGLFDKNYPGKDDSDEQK
Test: crRNA (strand 1, pre-loaded); Mg2+; 40 mM Tris-HCl pH 7.5, 150 mM NaCl, 6 mM MgCl2, 1 mM DTT, 0.1% Tween-20, 0.2 mg/ml BSA; 25 C; 10 min per concentration, then washed
Settings: tags: His6-TwinStrep-SUMO cleaved; N-terminal SNAP kept (SNAP-Surface 488); label: 3' end held by stalled T7 RNA polymerase

Sample records with Kd:
target 2 MT 5'PFS AUC 3'PFS AGA (mixed) RNA 1: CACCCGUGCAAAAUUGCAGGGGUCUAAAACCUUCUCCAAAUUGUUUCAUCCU RNA 2: GGGAAUGGAUCCACAUCUACGAAUUCAUCAGGAUGAAACAAUUUGGAGAAGAGAAGAUCGGAAGAGCACACGU
~80 nM
target 1 insU 3' of 14,insU 3' of 7 (mixed) RNA 1: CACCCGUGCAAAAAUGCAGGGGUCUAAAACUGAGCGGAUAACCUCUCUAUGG RNA 2: GGGAAUGGAUCCACAUCUACGAAUUCGUACCAUAGAGAUGGUUAUCUCGCUCACCGAGAUCGGAAGAGCACACGU
77 nM
target 1 U8C,A20U (mixed) RNA 1: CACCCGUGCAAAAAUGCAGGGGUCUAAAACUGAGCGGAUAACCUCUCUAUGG RNA 2: GGGAAUGGAUCCACAUCUACGAAUUCGUACCUUAGAGAGGUUACCCGCUCACCGAGAUCGGAAGAGCACACGU
80 nM

In the following, a different binder is considered.
Noted for target 2 MT 5'PFS ACA 3'PFS AAA (mixed) RNA 1: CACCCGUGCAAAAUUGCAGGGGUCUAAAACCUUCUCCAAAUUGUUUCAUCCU RNA 2: GGGAAUGGAUCCACAUCUACGAAUUCACAAGGAUGAAACAAUUUGGAGAAGAAAAGAUCGGAAGAGCACACGU : its Kd reads 8.3 nM
